Molecular target: ΔF508-CFTR (Homo sapiens, UniProt P13569, DEL508-508)
Construct: expressed in transfected cells
Sequence (P13569 with tags, fused parts or gaps DEL508-508): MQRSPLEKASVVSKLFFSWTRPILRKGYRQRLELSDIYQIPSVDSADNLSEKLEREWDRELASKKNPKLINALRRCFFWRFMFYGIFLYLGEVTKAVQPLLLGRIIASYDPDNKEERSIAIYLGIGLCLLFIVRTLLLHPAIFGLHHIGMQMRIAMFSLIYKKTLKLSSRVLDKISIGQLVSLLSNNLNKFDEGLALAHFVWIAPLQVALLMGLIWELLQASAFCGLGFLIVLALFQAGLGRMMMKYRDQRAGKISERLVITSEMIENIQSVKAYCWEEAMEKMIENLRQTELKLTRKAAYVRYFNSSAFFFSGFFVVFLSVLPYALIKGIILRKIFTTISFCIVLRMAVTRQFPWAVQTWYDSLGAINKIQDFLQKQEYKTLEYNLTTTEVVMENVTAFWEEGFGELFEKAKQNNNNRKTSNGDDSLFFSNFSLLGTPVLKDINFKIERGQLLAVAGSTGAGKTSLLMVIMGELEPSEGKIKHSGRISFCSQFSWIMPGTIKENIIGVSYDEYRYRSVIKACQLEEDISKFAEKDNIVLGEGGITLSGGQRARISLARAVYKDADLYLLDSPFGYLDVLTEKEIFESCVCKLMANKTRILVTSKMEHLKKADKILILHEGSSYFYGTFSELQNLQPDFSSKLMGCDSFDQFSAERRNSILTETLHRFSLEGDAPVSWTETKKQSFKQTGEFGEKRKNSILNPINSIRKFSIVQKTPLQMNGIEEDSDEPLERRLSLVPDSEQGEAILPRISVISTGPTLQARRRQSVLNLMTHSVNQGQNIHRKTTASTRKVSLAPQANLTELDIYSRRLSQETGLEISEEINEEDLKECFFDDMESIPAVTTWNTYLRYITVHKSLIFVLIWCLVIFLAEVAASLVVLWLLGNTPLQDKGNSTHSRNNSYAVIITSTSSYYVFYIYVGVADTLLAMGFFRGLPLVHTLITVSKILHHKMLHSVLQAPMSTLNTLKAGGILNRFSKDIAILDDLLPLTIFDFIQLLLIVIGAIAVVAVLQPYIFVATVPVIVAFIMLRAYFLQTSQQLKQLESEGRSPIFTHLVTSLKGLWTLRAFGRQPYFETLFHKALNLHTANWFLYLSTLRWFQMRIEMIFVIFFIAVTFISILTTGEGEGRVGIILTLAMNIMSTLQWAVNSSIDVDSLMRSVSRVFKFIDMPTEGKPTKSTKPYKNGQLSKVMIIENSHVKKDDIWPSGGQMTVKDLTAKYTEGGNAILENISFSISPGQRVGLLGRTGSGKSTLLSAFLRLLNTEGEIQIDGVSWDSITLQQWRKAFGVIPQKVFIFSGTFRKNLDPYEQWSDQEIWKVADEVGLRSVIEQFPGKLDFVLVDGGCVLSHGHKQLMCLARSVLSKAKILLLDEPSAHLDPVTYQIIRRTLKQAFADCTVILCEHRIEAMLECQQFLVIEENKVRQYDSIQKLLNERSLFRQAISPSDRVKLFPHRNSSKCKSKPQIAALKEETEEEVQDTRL
Assay: Membrane potential optical assay (FRET/VIPR), identification of correction compounds
Type: cell-based
Conditions: relative efficacy
Emax reference

CC(c1nc2ccccc2c(=O)n1C)N1CCCN(S(=O)(=O)c2ccc(Cl)cc2)CC1 (stereo not shown) [compound 171]    25 to 100%
CC(c1nc2ccccc2c(=O)n1C)N(CCNS(=O)(=O)c1ccc(Br)cc1)S(=O)(=O)c1ccc(Br)cc1 (stereo not shown) [compound 199]    < 25%

Data request: Value lookup for Emax; key = COc1ccc(S(=O)(=O)N2CCN(C(C)c3nc(Oc4ccncc4)c4ccccc4n3)CC2)cc1 (stereo not shown) [compound 297]
Data returned: 25 to 100%

Data request: Value lookup for Emax; key = Cn1c(CN2CCN(S(=O)(=O)c3ccc(Br)cc3)CC2)nc2ccc(Cl)cc2c1=O [compound 84]
Data returned: < 25%

Data request: Value lookup for Emax; key = COc1ccc(S(=O)(=O)N2CCN(C(C)c3nc4cc(OC)c(OC)cc4c(=O)n3C)CC2)cc1 (stereo not shown) [compound 285]
Data returned: 25 to 100%

Data request: Value lookup for Emax; key = COc1ccc(S(=O)(=O)NCCCN(C(C)c2nc3ccccc3c(=O)n2C)S(=O)(=O)c2ccc(OC)cc2)cc1 (stereo not shown) [compound 205]
Data returned: < 25%

Data request: Value lookup for Emax; key = CC(c1nc2ccccc2c(=O)n1C)N1CCN(S(=O)(=O)c2ccccc2F)CC1 (stereo not shown) [compound 253]
Data returned: 25 to 100%

Data request: Value lookup for Emax; key = CC(c1nc2ccccc2c(=O)n1C)N1CCN(S(=O)(=O)c2cccc3ccccc23)CC1 (stereo not shown) [compound 12]
Data returned: 25 to 100%

Data request: Value lookup for Emax; key = CC(NCCN)c1nc2ccccc2c(=O)n1C (stereo not shown) [compound 181]
Data returned: < 25%

Data request: Value lookup for Emax; key = CC(c1nc2ccccc2c(=O)n1C)N1CCN(S(=O)(=O)c2cccc3cnccc23)CC1 (stereo not shown) [compound 251]
Data returned: < 25%

Data request: Value lookup for Emax; key = CC(c1nc2cc(Cl)ccc2c(=O)n1C)N1CCN(S(=O)(=O)c2ccc(Br)cc2)CC1 (stereo not shown) [compound 95]
Data returned: 25 to 100%

Data request: Value lookup for Emax; key = CCc1nc2ccc(Cl)cc2c(=O)n1C [compound 88]
Data returned: < 25%

Data request: Value lookup for Emax; key = COc1ccc(S(=O)(=O)N(C[C@@H]2CCCCN2S(=O)(=O)c2ccc(OC)cc2)C(C)c2nc3ccccc3c(=O)n2C)cc1 (stereo partly shown) [compound 203]
Data returned: < 25%

Data request: Value lookup for Emax; key = COc1ccc(S(=O)(=O)N2CCN(C(C)c3nc(OC4CCC(C)C(C)C4)c4ccccc4n3)CC2)cc1 (stereo not shown) [compound 348]
Data returned: > 100%

Data request: Value lookup for Emax; key = COc1ccc(NC(=O)N2CCN(C(C)c3nc4ccccc4c(=O)n3C)CC2)c(OC)c1 (stereo not shown) [compound 8]
Data returned: < 25%

Data request: Value lookup for Emax; key = CC(Nc1ccc(NS(=O)(=O)c2ccc(Cl)cc2)cc1)c1nc2ccccc2c(=O)n1C (stereo not shown) [compound 308]
Data returned: 25 to 100%

FYI, the data here is from patent US8642609B2.
